experiment: Cytotoxicity against human A549 cells assessed as inhibition of cell proliferation incubated for 4 days by Coulter counter based assay
Overview of recorded CC50 at 96 h for various compounds
attribute measured: CC50 at 96 h (µM)

mol smiles	attribute measured	value units	rel	measured number
CCOC(=O)[C@H](Cc1ccccc1)NP(=O)(CCN(CCN(CCP(=O)(N[C@@H](Cc1ccccc1)C(=O)OCC)N[C@@H](Cc1ccccc1)C(=O)OCC)CCP(=O)(N[C@@H](Cc1ccccc1)C(=O)OCC)N[C@@H](Cc1ccccc1)C(=O)OCC)CCn1cnc2c(=O)[nH]cnc21)N[C@@H](Cc1ccccc1)C(=O)OCC	CC50 at 96 h	µM	=	28
CCOC(=O)[C@H](Cc1ccccc1)NP(=O)(CCN(CCN(CCP(=O)(N[C@@H](Cc1ccccc1)C(=O)OCC)N[C@@H](Cc1ccccc1)C(=O)OCC)CCP(=O)(N[C@@H](Cc1ccccc1)C(=O)OCC)N[C@@H](Cc1ccccc1)C(=O)OCC)CCn1cnc2c(=O)[nH]c(N)nc21)N[C@@H](Cc1ccccc1)C(=O)OCC	CC50 at 96 h	µM	>	300

----------
experiment: Inhibition of Escherichia coli HGPRT
attribute measured: Ki (µM)

> print(dat)
                                 mol.smiles  measured.number
1  Nc1nc2c(ncn2[C@@H]2O[C@H](COP(=O)(O)O)[C@@H](O)[C@H]2O)c(=O)[nH]1              526

----------
assay: Cytotoxicity against human A549 cells assessed as inhibition of cell proliferation incubated for 4 days by Coulter counter based assay

molecule	value units	CC50 at 96 h
CCOC(=O)[C@H](Cc1ccccc1)NP(=O)(CCN(CCO)CCN(CCn1cnc2c(=O)[nH]cnc21)CCP(=O)(N[C@@H](Cc1ccccc1)C(=O)OCC)N[C@@H](Cc1ccccc1)C(=O)OCC)N[C@@H](Cc1ccccc1)C(=O)OCC	µM	156
CCOC(=O)[C@H](Cc1ccccc1)NP(=O)(CCN(CCO)CCN(CCn1cnc2c(=O)[nH]c(N)nc21)CCP(=O)(N[C@@H](Cc1ccccc1)C(=O)OCC)N[C@@H](Cc1ccccc1)C(=O)OCC)N[C@@H](Cc1ccccc1)C(=O)OCC	µM	193
CCOC(=O)[C@H](Cc1ccccc1)NP(=O)(CCOCC(Cn1cnc2c(=O)[nH]cnc21)OCCP(=O)(N[C@@H](Cc1ccccc1)C(=O)OCC)N[C@@H](Cc1ccccc1)C(=O)OCC)N[C@@H](Cc1ccccc1)C(=O)OCC (stereo partly drawn)	µM	90

----------
test system: Mycobacterium tuberculosis; test: Antimycobacterial activity against Mycobacterium tuberculosis H37Rv […] assessed as inhibition of microbial growth incubated for 5 days by resazurin reduction microplate assay; type: functional; conditions: 120 h

molecule	system	MIC50
CCOC(=O)[C@H](Cc1ccccc1)NP(=O)(CCOCC(Cn1cnc2c(=O)[nH]c(N)nc21)OCCP(=O)(N[C@@H](Cc1ccccc1)C(=O)OCC)N[C@@H](Cc1ccccc1)C(=O)OCC)N[C@@H](Cc1ccccc1)C(=O)OCC (stereo partly drawn)	Mycobacterium tuberculosis	9 µM
CCOC(=O)[C@H](Cc1ccccc1)NP(=O)(CCN(CCO)CCN(CCn1cnc2c(=O)[nH]c(N)nc21)CCP(=O)(N[C@@H](Cc1ccccc1)C(=O)OCC)N[C@@H](Cc1ccccc1)C(=O)OCC)N[C@@H](Cc1ccccc1)C(=O)OCC	Mycobacterium tuberculosis	4.5 µM
CCOC(=O)[C@H](Cc1ccccc1)NP(=O)(CCN(CCN(CCP(=O)(N[C@@H](Cc1ccccc1)C(=O)OCC)N[C@@H](Cc1ccccc1)C(=O)OCC)CCP(=O)(N[C@@H](Cc1ccccc1)C(=O)OCC)N[C@@H](Cc1ccccc1)C(=O)OCC)CCn1cnc2c(=O)[nH]c(N)nc21)N[C@@H](Cc1ccccc1)C(=O)OCC	Mycobacterium tuberculosis	4.5 µM
CCOC(=O)[C@H](Cc1ccccc1)NP(=O)(CCOCC(Cn1cnc2c(=O)[nH]cnc21)OCCP(=O)(N[C@@H](Cc1ccccc1)C(=O)OCC)N[C@@H](Cc1ccccc1)C(=O)OCC)N[C@@H](Cc1ccccc1)C(=O)OCC (stereo partly drawn)	Mycobacterium tuberculosis	15 µM
CCOC(=O)[C@H](Cc1ccccc1)NP(=O)(COCC(COCP(=O)(N[C@@H](Cc1ccccc1)C(=O)OCC)N[C@@H](Cc1ccccc1)C(=O)OCC)Cn1cnc2c(=O)[nH]c(N)nc21)N[C@@H](Cc1ccccc1)C(=O)OCC	Mycobacterium tuberculosis	11 µM
CCOC(=O)[C@H](Cc1ccccc1)NP(=O)(COCC(COCP(=O)(N[C@@H](Cc1ccccc1)C(=O)OCC)N[C@@H](Cc1ccccc1)C(=O)OCC)Cn1cnc2c(=O)[nH]cnc21)N[C@@H](Cc1ccccc1)C(=O)OCC	Mycobacterium tuberculosis	7.5 µM
CCOC(=O)[C@H](Cc1ccccc1)NP(=O)(CCN(CCO)CCN(CCn1cnc2c(=O)[nH]cnc21)CCP(=O)(N[C@@H](Cc1ccccc1)C(=O)OCC)N[C@@H](Cc1ccccc1)C(=O)OCC)N[C@@H](Cc1ccccc1)C(=O)OCC	Mycobacterium tuberculosis	8 µM
CCOC(=O)[C@H](Cc1ccccc1)NP(=O)(CCN(CCN(CCP(=O)(N[C@@H](Cc1ccccc1)C(=O)OCC)N[C@@H](Cc1ccccc1)C(=O)OCC)CCP(=O)(N[C@@H](Cc1ccccc1)C(=O)OCC)N[C@@H](Cc1ccccc1)C(=O)OCC)CCn1cnc2c(=O)[nH]cnc21)N[C@@H](Cc1ccccc1)C(=O)OCC	Mycobacterium tuberculosis	4.5 µM
